Where do these numbers come from? They come from patent US20220289746A1.

# ASSAYED_SYSTEM: human M4 receptor (Homo sapiens)
# Sequence (P08173 whole entry): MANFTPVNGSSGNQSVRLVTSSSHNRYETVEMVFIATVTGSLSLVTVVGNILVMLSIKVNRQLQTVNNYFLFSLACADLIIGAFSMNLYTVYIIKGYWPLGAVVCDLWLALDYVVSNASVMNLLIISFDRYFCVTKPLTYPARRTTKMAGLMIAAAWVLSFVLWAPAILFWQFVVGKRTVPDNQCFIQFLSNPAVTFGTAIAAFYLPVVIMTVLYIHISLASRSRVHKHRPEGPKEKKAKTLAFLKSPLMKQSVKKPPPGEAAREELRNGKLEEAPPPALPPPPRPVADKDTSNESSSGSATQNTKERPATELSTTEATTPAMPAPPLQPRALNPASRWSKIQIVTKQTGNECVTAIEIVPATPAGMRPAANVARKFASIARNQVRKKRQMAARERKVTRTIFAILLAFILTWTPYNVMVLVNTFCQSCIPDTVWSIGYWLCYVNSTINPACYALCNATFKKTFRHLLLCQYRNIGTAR
# METHOD_NOTES: cAMP assay for M4 positive allosteric modulators (M4 PAM cAMP assay)
# Type: cell-based
# Set-up: expressed in transfected cells; host or cells: CHO-K1
# MEASUREMENT_CONTEXT: Table 1; CHO-K1 cells expressing human M4; forskolin 7.5 μM + acetylcholine EC20 (0.2 nM)
pEC50: −log10 of the molar value.
VALUE_KIND: pEC50

Sample records with pEC50:
// pEC50 (human M4 receptor (Homo sapiens)) for Cc1nc2c(c(C)c1Cl)CN(C(=O)[C@@H]1CCN(c3ccc(C(F)(F)F)nn3)C1)C2 = 5.29

// pEC50 (human M4 receptor (Homo sapiens)) for Cc1cnc(N2CC[C@@H](C(=O)N3Cc4nc(C)c(Cl)c(C)c4C3)C2)nc1 = 5.28

// pEC50 (human M4 receptor (Homo sapiens)) for Cc1ccncc1N1CC[C@@H](C(=O)N2Cc3nc(C)c(Cl)c(C)c3C2)C1 = 6.17

I: COc1cncc(N2CC[C@@H](C(=O)N3Cc4nc(C)c(Cl)c(C)c4C3)C2)n1
II: Cc1nc2c(c(C)c1Cl)CN(C(=O)[C@@H]1CCN(c3ccnc(C(F)(F)F)n3)C1)C2
Parameter metric = pEC50. Return the lower-valued option from I and II . Refer to your chosen entry by its label in the reply.
I

* * *

# ASSAYED_SYSTEM: UniProt:P08173
# METHOD_NOTES: cAMP assay for M4 positive allosteric modulators (M4 PAM cAMP assay)
# Format: cell-based
# Design: expressed in transfected cells; host or cells: CHO-K1
# MEASUREMENT_CONTEXT: Table 1; CHO-K1 cells expressing human M4; forskolin 7.5 μM + acetylcholine EC20 (0.2 nM)
VALUE_KIND: EC50 (nM)

A: Cc1nc2c(c(C)c1Cl)CN(C(=O)[C@@H]1CCN(c3cc(C(F)F)ncn3)C1)C2 [Example 54]
B: Cc1ccc(N2CC[C@@H](C(=O)N3Cc4nc(C)c(Cl)c(C)c4C3)C2)cn1 [Example 4]
C: Cc1ncccc1N1CC[C@@H](C(=O)N2Cc3nc(C)c(Cl)c(C)c3C2)C1 [Example 12]
List from greatest to least EC50. Please express your ranking as an ordered list of the labels.
C, B, A

1: Cc1cc(N2CC[C@@H](C(=O)N3Cc4nc(C)c(Cl)c(C)c4C3)C2)ccn1 [Example 5]
2: Cc1nc2c(c(C)c1Cl)CN(C(=O)[C@@H]1CCN(c3cnc(C(F)(F)F)cn3)C1)C2 [Example 47]
3: Cc1nc2c(c(C)c1Cl)CN(C(=O)[C@@H]1CCN(c3cncc(C(F)F)c3)C1)C2 [Example 15]
4: Cc1nc2c(c(C)c1Cl)CN(C(=O)[C@@H]1CCN(c3cccnc3)C1)C2 [Example 1]
5: COCc1nc2c(c(C)c1Cl)CN(C(=O)[C@@H]1CCN(c3cccnc3)C1)C2 [Example 56]
Task field, ranking: reported EC50, descending order. Please express your ranking as an ordered list of the labels.
2, 1, 3, 4, 5

1: CNc1ccc(N2CC[C@@H](C(=O)N3Cc4nc(C)c(Cl)c(C)c4C3)C2)cn1 [Example 11]
2: Cc1nc2c(c(C)c1Cl)CN(C(=O)[C@@H]1CCN(c3ncc(C(F)(F)F)cn3)C1)C2 [Example 7]
Parameter metric = EC50. Return the lower-valued option from 1 and 2 . Refer to your chosen entry by its label in the reply.
1
(1: 446 nM, 2: 2080 nM)
